Target: T1, N-formyl-methionyl-leucyl-phenylalanine (fMLF) receptor on elicited rat peritoneal neutrophils (rat, UniProt D4A7Q2 1-355)
T1 construct: Native receptor on whole neutrophils (PMNs); also called Rat FPR; formyl peptide receptor
T1 sequence: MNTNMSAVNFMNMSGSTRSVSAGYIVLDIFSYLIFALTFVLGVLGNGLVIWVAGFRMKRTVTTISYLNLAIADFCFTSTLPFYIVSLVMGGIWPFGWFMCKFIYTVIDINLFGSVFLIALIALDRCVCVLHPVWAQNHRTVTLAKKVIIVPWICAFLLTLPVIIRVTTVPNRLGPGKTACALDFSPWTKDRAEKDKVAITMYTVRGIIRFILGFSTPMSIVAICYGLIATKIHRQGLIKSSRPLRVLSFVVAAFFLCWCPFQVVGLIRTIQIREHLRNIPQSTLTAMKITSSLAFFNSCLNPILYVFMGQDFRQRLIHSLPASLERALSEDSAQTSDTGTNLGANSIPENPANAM
Experiment: competition with 6 nM 3H-fMLF for binding to elicited rat peritoneal neutrophils, 4 C, filter harvest
Experimental: Neutrophils isolated by peritoneal lavage were washed twice with 1 mL of HBSS− (without calcium chloride, magnesium chloride and magnesium sulfate) and centrifuged for ten minutes at 2000 rpms following each wash. […] Total binding in the competition assays was assessed in the presence of 1.0 ×10^6 PMNs per sample while non-specific binding was determined in the absence of cells. […]
Square brackets hold non-standard residues; d marks the D form. * marks the point of attachment. dimethylgly‑t‑butylgly‑cys‑gly = CN(C)CC(=O)N[C@H](C(=O)N[C@@H](CS)C(=O)NCC(=O)*)C(C)(C)C; Cyclopropanecarbonyl = O=C(C1CC1)*; Nle = CCCC[C@H](N)C(=O)O
reportedEndpoint: pIC50
Scale explanation: pIC50 corresponds to minus log10 of a concentration expressed in moles per litre.

Query block: Given the entry Cyclopropanecarbonyl-[Nle]LFSHK(dimethylgly‑t‑butylgly‑cys‑gly)G-OH (also: ReO (rhenium oxo) complex with Lys6 side-chain chelator, Rhenium complex as tested; also called ReORP553 17-05; RP553-17-05) [ReO-CyclopropylCONH-nleu-leu-phe-ser-his-lys(dimethylgly-t-butylgly-cys-gly)-gly-OH] , report its measured pIC50.
Result block: 6.00

Query block: Given the entry Cyclopropanecarbonyl-[Nle]LFSEKG-OH (not fully specified (residue 6); printed as ReO-CyclopropylCONH-nleu-leu-phe-ser-glu-lys(dimethylgly-t-butylgly-cys-gly)-gly-OH; also: ReO (rhenium oxo) complex on the side-chain chelate, Rhenium complex as tested; also called ReORP553 17-02; RP553-17-02) [ReO-CyclopropylCONH-nleu-leu-phe-ser-glu-lys(dimethylgly-t-butylgly-cys-gly)-gly-OH] , report its measured pIC50.
Result block: 5.64

Each recorded value in this set is attributed to patent US6872536.
